- protocol text: Protein binding in mouse plasma assessed as free fraction at 5 uM incubated for 4.5 hrs by HPLC analysis
- Type: ADME, cell-free

line notation: N#Cc1ccc([C@@H]2[C@@H]3CC[C@@H](C[C@@H]3O)N2S(=O)(=O)c2ccc(Cl)cc2)cn1
fraction unbound at 4.5 h, 5 µM: 0.0869
//
line notation: O=S(=O)(c1ccc(Cl)cc1)N1[C@H]2CC[C@@H]([C@H]1c1ccc(C(F)(F)F)cc1)[C@@H](O)C2
fraction unbound at 4.5 h, 5 µM: 0.00309

* * *

Reported values of IC50 for individual entries
- protocol text: Inhibition of human PSEN1/APH1B expressed in MEF cells with Psen1/2 double knockout/Aph1ABC triple knockout by ELISA
- Type: cell-based

molecule: O=S(=O)(c1ccc(Cl)cc1)N1[C@H]2CC[C@@H]([C@H]1c1cc(F)ccc1F)[C@@H](O)C2 (racemic)
IC50 (nM): 25
--
molecule: CCNC(=O)Nc1ccc([C@@H]2[C@@H]3CC[C@@H](CC3=O)N2S(=O)(=O)c2ccc(Cl)cc2)cc1 (racemic)
IC50 (nM): 389
--
molecule: O=C1C[C@@H]2CC[C@H]1[C@@H](c1ccc(Cl)cc1)N2S(=O)(=O)c1ccc(Cl)s1 (racemic)
IC50 (nM): 281
--
molecule: CC(=O)Nc1ccc([C@@H]2[C@@H]3CC[C@@H](CC3=O)N2S(=O)(=O)c2ccc(Cl)s2)cc1 (racemic)
IC50 (nM): 389
--
molecule: O=S(=O)(c1ccc(Cl)cc1)N1[C@H]2CC[C@H]([C@H](O)C2)[C@H]1c1ccc(C(F)(F)F)nc1 (racemic)
IC50 (nM): 776
--
molecule: N#Cc1ccc([C@@H]2[C@@H]3CC[C@@H](C[C@@H]3O)N2S(=O)(=O)c2ccc(Cl)cc2)c(F)c1 (racemic)
IC50 (nM): 2.4
--
molecule: O=C1C[C@@H]2CC[C@H]1[C@@H](c1ccc(C(F)(F)F)nc1)N2S(=O)(=O)c1ccc(Cl)s1 (racemic)
IC50 (nM): 588

* * *

Recorded below: IC50, system Voltage-gated inwardly rectifying potassium channel KCNH2 (Homo sapiens).

line notation: N#Cc1ccc([C@@H]2[C@@H]3CC[C@@H](C[C@@H]3O)N2S(=O)(=O)c2ccc(Cl)cc2)cn1
system name: Voltage-gated inwardly rectifying potassium channel KCNH2 (Homo sapiens)
Sequence (Q12809 whole entry): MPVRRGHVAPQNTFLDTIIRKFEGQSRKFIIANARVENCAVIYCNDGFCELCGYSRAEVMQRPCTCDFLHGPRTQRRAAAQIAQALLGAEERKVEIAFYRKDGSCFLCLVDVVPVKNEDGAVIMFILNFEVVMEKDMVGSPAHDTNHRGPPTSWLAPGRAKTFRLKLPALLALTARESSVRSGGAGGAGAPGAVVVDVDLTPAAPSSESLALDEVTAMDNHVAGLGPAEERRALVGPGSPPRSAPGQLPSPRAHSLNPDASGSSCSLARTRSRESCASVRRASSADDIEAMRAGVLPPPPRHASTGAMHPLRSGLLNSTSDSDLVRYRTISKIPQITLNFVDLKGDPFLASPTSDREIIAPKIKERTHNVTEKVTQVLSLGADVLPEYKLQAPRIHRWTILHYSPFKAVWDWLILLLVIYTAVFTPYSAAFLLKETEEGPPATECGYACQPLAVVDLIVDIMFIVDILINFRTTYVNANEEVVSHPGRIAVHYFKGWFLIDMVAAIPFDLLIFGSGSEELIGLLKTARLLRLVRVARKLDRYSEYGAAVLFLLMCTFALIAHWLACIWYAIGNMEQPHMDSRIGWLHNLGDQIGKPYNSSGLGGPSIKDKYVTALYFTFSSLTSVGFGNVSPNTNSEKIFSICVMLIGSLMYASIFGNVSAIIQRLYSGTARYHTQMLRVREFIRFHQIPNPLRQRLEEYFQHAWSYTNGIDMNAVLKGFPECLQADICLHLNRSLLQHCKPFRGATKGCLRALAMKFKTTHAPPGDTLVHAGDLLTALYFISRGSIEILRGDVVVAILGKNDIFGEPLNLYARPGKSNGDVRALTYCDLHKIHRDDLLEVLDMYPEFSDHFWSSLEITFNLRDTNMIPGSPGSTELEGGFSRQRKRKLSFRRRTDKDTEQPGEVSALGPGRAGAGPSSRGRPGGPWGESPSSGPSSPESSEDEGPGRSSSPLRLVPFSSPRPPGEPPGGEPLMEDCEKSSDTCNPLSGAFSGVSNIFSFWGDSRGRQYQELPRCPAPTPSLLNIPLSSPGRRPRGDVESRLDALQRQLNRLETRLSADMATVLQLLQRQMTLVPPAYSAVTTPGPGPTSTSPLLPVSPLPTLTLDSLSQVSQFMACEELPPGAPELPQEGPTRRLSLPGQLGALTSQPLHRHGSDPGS
IC50: > 10 µM

line notation: O=S(=O)(c1ccc(Cl)cc1)N1[C@H]2CC[C@@H]([C@H]1c1ccc(C(F)(F)F)cc1)[C@@H](O)C2
system name: Voltage-gated inwardly rectifying potassium channel KCNH2 (Homo sapiens)
IC50: > 10 µM

* * *

Reported values of efflux ratio at 5 µM for individual entries
- System: human MDR1
- protocol text: Efflux ratio of apparent permeability basal to apical side over apical to basal side in MDCK cells transfected with human MDR1 at 5 uM by LC-MS/MS analysis
- Assay type: ADME, cell-based, Canis lupus familiaris
- test settings: dog
value kind: efflux ratio at 5 µM

line notation: O=S(=O)(c1ccc(Cl)cc1)N1[C@H]2CC[C@@H]([C@H]1c1ccc(C(F)(F)F)cc1)[C@@H](O)C2
value kind: efflux ratio at 5 µM
numeric readout: 1.95

line notation: N#Cc1ccc([C@@H]2[C@@H]3CC[C@@H](C[C@@H]3O)N2S(=O)(=O)c2ccc(Cl)cc2)cn1
value kind: efflux ratio at 5 µM
numeric readout: 32.3
